Here, each record is paired with measured TGI data.
System: SW-620 colon
Method description: NCI tumour cell line growth inhibition, 48 h
Give just the numeric value; µM need not be written.

Below, 2 compounds whose answers are already recorded.
Compound	Recorded measurement
COc1ccc(Nc2nc3cc(N)cc(N)c3nc2-c2ccccc2)cc1	37
CCCCN1C(=O)C2Cc3c([nH]c4ccccc34)C(c3cccc(O)c3)N2C1=O (configuration not stated)	38.7

Consider the additional compound presented here.
Request the reported TGI associated with `CC(C)[N+]([O-])(CCCNc1c2ccccc2nc2cccc([N+](=O)[O-])c12)C(C)C`
4.9

###

Test system: CCRF-CEM leukemia
Method description: NCI tumour cell line growth inhibition, 48 h
Measure: TGI

Below, each entry is followed by its recorded TGI result.
>>> print(df.to_string())
                                   compound  measure  recorded_measurement
0  Cc1ccc(CC2(C(=O)O)Cc3ccc(C)cc3C2)cc1 (stereo not drawn)      TGI              > 100 µM
1   CCn1cc2c(=O)n3ncn(-c4ccc(Br)cc4)c3nc2n1      TGI              > 100 µM
2  CSc1ccc2c(cc1=O)[C@@H](NC(=O)c1cccc([N+](=O)[O-])c1)CCc1cc(O)c(O)c(O)c1-2      TGI              > 100 µM
3  COc1ccc(/C=C\c2cc(OC)c(OC)c(OC)c2)cc1OCC(=O)Nc1nc2ccc(F)cc2s1      TGI              > 100 µM

Return reported TGI; argument: `COC(=O)c1cc2c(=O)n(C)c3ccccc3n2c1C(=O)OC`
> 100 µM

For CCOC1CN=C(Nc2cccc3ccccc23)S1 (stereo not drawn) then?
> 10 µM

Now the same for Cc1c(C)c2ccc(OCC(O)COC(C)C)c(C)c2oc1=O (stereo not drawn)
62.4 µM

Further, for `COc1cccc2c1c1ccc3c(c1n2C)C(=O)C=CC3=O` ?
> 100 µM

###

System: SNB-75 CNS
Method description: NCI tumour cell line growth inhibition, 48 h
Measure: TGI

Can you look up the measured TGI of `CCOC(=O)C1=CCCC[C@H]1S(=O)(=O)Nc1ccc(F)cc1Cl` for me?
> 100 µM

// same read-out, input: `O=C1/C(=C/c2cccc(Cl)c2)CCCc2ccccc21`
> 100 µM

Query O=C1NC2c3c(I)sc(I)c3C(=O)C2O1 (stereo unspecified) next
25.8 µM

Also, CCc1cccc(C(C)C)c1NC(=O)C(=O)C1C(=O)Nc2ccccc2S1=O (stereo unspecified) please.
> 100 µM

Record: `CC(=O)Oc1ccccc1`
> 100 µM

Likewise for C=C(Cl)C(Cl)(CBr)CCC(Br)C(C)(C)Br (stereo unspecified) ?
5.45 µM

###

System: OVCAR-4 ovarian
Method description: NCI tumour cell line growth inhibition, 48 h
Reported TGI is given for each of the following compounds.

Take a look at these entries with their results.
>>> print(df.to_string())
                                   compound  measure  recorded_measurement
0  C[n+]1cccc(NC(=O)c2ccc(NC(=O)C34CCC(C(=O)Nc5ccc(C(=O)Nc6ccc[n+](C)c6)cc5)(CC3)CC4)cc2)c1      TGI              > 100 µM
1  CCOC(=O)Cc1csc(NC(NC(=O)OCC)(C(=O)OCC)C(F)(F)F)n1 (stereo not drawn)      TGI              > 100 µM

Which TGI value belongs to `Nc1nc(Cl)cc(NCC2(O)CCC2)n1` ?
> 100 µM
